Target: TRPA1 (Homo sapiens, UniProt O75762)
Construct: cultured human airway cells, including fibroblasts, epithelial and smooth muscle cells express functional TRPA1 channels; endogenous in cells; host or cells: SAEC, NHLF, HBSMC (Lonza, primary); A549, IMR90 (ATCC)
Sequence (O75762 whole entry): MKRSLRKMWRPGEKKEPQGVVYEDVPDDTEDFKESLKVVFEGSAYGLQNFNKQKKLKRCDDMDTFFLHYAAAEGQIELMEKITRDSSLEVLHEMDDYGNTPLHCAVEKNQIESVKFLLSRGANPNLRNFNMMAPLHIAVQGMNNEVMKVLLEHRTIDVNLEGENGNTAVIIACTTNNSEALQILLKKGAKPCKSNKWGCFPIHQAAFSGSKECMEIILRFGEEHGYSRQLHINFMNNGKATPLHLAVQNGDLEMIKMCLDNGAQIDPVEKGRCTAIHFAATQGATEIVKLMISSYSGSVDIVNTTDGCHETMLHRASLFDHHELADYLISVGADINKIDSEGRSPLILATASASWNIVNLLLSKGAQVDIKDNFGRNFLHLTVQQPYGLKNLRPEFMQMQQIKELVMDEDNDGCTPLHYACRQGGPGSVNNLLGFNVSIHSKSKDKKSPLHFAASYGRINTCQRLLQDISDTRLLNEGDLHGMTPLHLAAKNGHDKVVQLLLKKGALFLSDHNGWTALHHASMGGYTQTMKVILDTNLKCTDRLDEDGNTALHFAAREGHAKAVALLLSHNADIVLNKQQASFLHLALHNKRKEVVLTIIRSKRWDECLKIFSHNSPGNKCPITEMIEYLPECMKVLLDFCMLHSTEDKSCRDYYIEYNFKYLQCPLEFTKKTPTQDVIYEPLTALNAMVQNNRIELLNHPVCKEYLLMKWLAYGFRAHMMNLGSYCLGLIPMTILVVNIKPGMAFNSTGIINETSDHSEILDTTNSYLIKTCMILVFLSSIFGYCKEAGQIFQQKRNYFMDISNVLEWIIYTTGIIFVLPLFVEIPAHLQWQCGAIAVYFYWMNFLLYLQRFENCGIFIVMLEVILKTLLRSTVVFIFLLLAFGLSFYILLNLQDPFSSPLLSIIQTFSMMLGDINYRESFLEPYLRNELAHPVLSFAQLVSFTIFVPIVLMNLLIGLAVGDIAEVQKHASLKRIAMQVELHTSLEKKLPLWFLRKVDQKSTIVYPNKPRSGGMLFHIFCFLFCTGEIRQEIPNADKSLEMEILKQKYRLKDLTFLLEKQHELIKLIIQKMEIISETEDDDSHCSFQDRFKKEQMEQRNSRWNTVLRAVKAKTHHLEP
Assay: Calcium imaging (Fura-2) of TRPA1 agonist responses in human airway/lung cells
Type: cell-based
Conditions: NHLF; intracellular calcium response
value-kind: EC50 (µM)
Report only the number, with the unit µM understood.

Exam item: Fill in the blank: the reported EC50 of C=CC=O is ____.
Marked response: 4.4

Exam item: Fill in the blank: the reported EC50 of O=C/C=C/c1ccccc1 is ____.
Marked response: 6.6
